system: parasite; assay: Parasite LDH growth assay (Parasite Assay), antiparasite potency; assay type: cell-based; settings: parasite LDH growth assay, ring stage parasites, 72 hours incubation at 37° C.; read-out: EC50
Please respond with reported log10 EC50 for every item in the list.
Record value = log10 of EC50 given in nM.

Fill blank: measured log10 EC50 of the molecule CCC1(CC)CC(=O)N([C@@H]2CCOc3ccc(C(=O)NC4c5ccccc5CC4(O)C(F)(F)F)cc32)C(=N)N1 (some centres unmarked) [Example 272C] is ____. -0.05

Fill blank: measured log10 EC50 of the molecule CCC1(CC)CC(=O)N([C@@H]2CCOc3ccc(C(=O)NC4c5ccccc5OC4(C)CO)cc32)C(=N)N1 (some centres unmarked) [Example 176B] is ____. 0.89

Fill blank: measured log10 EC50 of the molecule CCC1(CC)CC(=O)N([C@@H]2CC(C)(C)Oc3ccc(C(=O)N[C@@H]4c5ccccc5CC4(C)O)cc32)C(=N)N1 (some centres unmarked) [Example 42A] is ____. 0.00

Fill blank: measured log10 EC50 of the molecule CC[C@]1(C)CC(=O)N([C@@H]2CCOc3ccc(C(=O)NC4c5c(F)cccc5OCC4(C)O)cc32)C(=N)N1 (some centres unmarked) [Example 193B] is ____. -0.10

# evaluate next
Fill blank: measured log10 EC50 of the molecule CCC1(CC)CC(=O)N([C@H]2c3cc(C(=O)N[C@@H]4c5ccccc5C[C@H]4O)ccc3OCC2OC)C(=N)N1 (some centres unmarked) [Example 72A] is ____. -0.30
